src = ChEMBL document CHEMBL4196178

assay: Selectivity index, ratio of CC50 for human HeLa Rh cells to EC50 for Rhinovirus B14 capsid infected in human HeLa Rh cells; format: toxicity, cell-based; settings: read-out: Ratio CC50/EC50
Would you mind telling me the reported selectivity ratio of each entry?

In: Give me measured selectivity ratio, please, for this molecule: O=[N+]([O-])c1cc(-c2cncs2)ccc1CC(O)c1ccc(-n2cncn2)cc1 (racemic)
Out: 110

In: Give me measured selectivity ratio, please, for this molecule: O=[N+]([O-])c1cc(Cl)ccc1CC(O)c1ccc(-n2cccn2)cc1 (racemic)
Out: > 781

In: Give me measured selectivity ratio, please, for this molecule: Cc1cc(CCCOc2c(C)cc(-c3noc(C(F)(F)F)n3)cc2C)on1 [PLECONARIL]
Out: > 4040

In: Give me measured selectivity ratio, please, for this molecule: Cn1cc(-c2ccc(CC(O)c3ccc(-n4cccn4)cc3)c([N+](=O)[O-])c2)cn1 (racemic)
Out: 1240 to 5000

In: Give me measured selectivity ratio, please, for this molecule: O=[N+]([O-])c1cc(F)ccc1CC(O)c1ccc(-n2cccn2)cc1 (racemic)
Out: > 12

----------
experiment: Cytotoxicity against human HeLa Rh cells assessed as reduction in cell viability after 3 days by MTS assay; format: cell-based
Would you mind telling me the reported CC50 at 72 h of each entry?
Give the value in µM but do not write µM after it.

In: Give me measured CC50 at 72 h, please, for this molecule: Cc1noc(C)c1-c1ccc(CC(O)c2ccc(-n3cccn3)cc2)c([N+](=O)[O-])c1 (racemic)
Out: 14

In: Give me measured CC50 at 72 h, please, for this molecule: Cn1nc(C(F)(F)F)cc1-c1ccc(CC(O)c2ccc(-n3cccn3)cc2)c([N+](=O)[O-])c1 (racemic)
Out: 14

----------
Would you mind telling me the reported selectivity ratio of each entry?
test: Selectivity index, ratio of CC50 for human HeLa Rh cells to EC50 for Rhinovirus B14 capsid infected in human HeLa Rh cells; type: toxicity, cell-based; details: read-out: Ratio CC50/EC50

In: Give me measured selectivity ratio, please, for this compound: `Cn1cc(-c2ccc(C[C@H](O)c3ccc(-n4cccn4)cc3)c([N+](=O)[O-])c2)cn1`
Out: > 9770

In: Give me measured selectivity ratio, please, for this compound: `Cn1cc(-c2ccc(C[C@@H](O)c3ccc(-n4cccn4)cc3)c([N+](=O)[O-])c2)cn1`
Out: > 136

In: Give me measured selectivity ratio, please, for this compound: O=[N+]([O-])c1cc(Br)ccc1CC(O)c1ccc(-n2cccn2)cc1 (racemic)
Out: 90

In: Give me measured selectivity ratio, please, for this compound: COC(=O)c1ccc(CC(O)c2ccc(-c3ccncc3)cc2)c([N+](=O)[O-])c1 (racemic)
Out: > 41

In: Give me measured selectivity ratio, please, for this compound: O=[N+]([O-])c1cc(Br)ccc1CC(O)c1ccc(-n2cncn2)cc1 (racemic)
Out: 156

In: Give me measured selectivity ratio, please, for this compound: Cn1cc(-c2ccc(CC(O)c3ccc(-n4cncn4)cc3)c([N+](=O)[O-])c2)cn1 (racemic)
Out: 1420 to 3880

In: Give me measured selectivity ratio, please, for this compound: `Cn1cc(-c2ccc(C[C@H](O)c3ccc(-n4cncn4)cc3)c([N+](=O)[O-])c2)cn1`
Out: > 5700

In: Give me measured selectivity ratio, please, for this compound: Cn1nc(C(F)(F)F)cc1-c1ccc(CC(O)c2ccc(-c3ccncc3)cc2)c([N+](=O)[O-])c1 (racemic)
Out: > 100

In: Give me measured selectivity ratio, please, for this compound: O=[N+]([O-])c1cc(-c2cccs2)ccc1CC(O)c1ccc(-c2ccncc2)cc1 (racemic)
Out: > 191

In: Give me measured selectivity ratio, please, for this compound: O=[N+]([O-])c1cc(Br)ccc1CC(O)c1ccc(-c2ccncc2)cc1 (racemic)
Out: > 424

In: Give me measured selectivity ratio, please, for this compound: Cn1nc(C(F)(F)F)cc1-c1ccc(CC(O)c2ccc(-n3cccn3)cc2)c([N+](=O)[O-])c1 (racemic)
Out: 29

In: Give me measured selectivity ratio, please, for this compound: O=[N+]([O-])c1cc(-c2ccco2)ccc1CC(O)c1ccc(-c2ccncc2)cc1 (racemic)
Out: > 72
